# Tested on: GST-tagged Cn
# ASSAY: PEPperPRINT peptide microarray binding assay with GST-tagged Cn
# CONDITION_LABEL: GST-tagged Cn, mean over the chip spots listed under Location on chip
# Chip Fluorescence (mean) per entry

{"MACROMOLECULE_SEQUENCE": "PSMAAPAINIDFAPTN [SeqRBMlowT_2463]", "Chip Fluorescence (mean)": 0.03589}
{"MACROMOLECULE_SEQUENCE": "TFWTNPQFKVKLEEPD [SeqRBMlowT_221]", "Chip Fluorescence (mean)": -0.7828}
{"MACROMOLECULE_SEQUENCE": "RQPGTAPANLVGHKKQ [SeqRBM_2906]", "Chip Fluorescence (mean)": -0.5221}
{"MACROMOLECULE_SEQUENCE": "KAYIMLFFTFIDGGQK [SeqRBM_3979]", "Chip Fluorescence (mean)": -0.3833}
{"MACROMOLECULE_SEQUENCE": "SPSIVANADLVVPYSE [SeqRBM_1237]", "Chip Fluorescence (mean)": -0.2316}

* * *

# Tested on: GST-tagged Cn
# ASSAY: PEPperPRINT peptide microarray binding assay with GST-tagged Cn
# CONDITION_LABEL: GST-tagged Cn, max over the chip spots listed under Location on chip
Quick list: Chip Fluorescence (max) per entry.

{"MACROMOLECULE_SEQUENCE": "RNPGQALLELRGHSAS [SeqRBMlowT_6125]", "Chip Fluorescence (max)": 0.4069}
{"MACROMOLECULE_SEQUENCE": "TFWSNPQFRITLEEPD [SeqRBMlowT_9100]", "Chip Fluorescence (max)": 0.5324}
{"MACROMOLECULE_SEQUENCE": "GAPITPHKQGNEKAVS [SeqRBM_6919]", "Chip Fluorescence (max)": 0.7143}
{"MACROMOLECULE_SEQUENCE": "FSFMCPDSNTNHDQVS [SeqRBM_6801]", "Chip Fluorescence (max)": 0.3774}
{"MACROMOLECULE_SEQUENCE": "TGTLCKSGMLVSTRMS [SeqRBM_1323]", "Chip Fluorescence (max)": 0.8817}
{"MACROMOLECULE_SEQUENCE": "LVWDNGSYTGRTIKAP [Seqshuffled_9818]", "Chip Fluorescence (max)": 0.8809}
{"MACROMOLECULE_SEQUENCE": "STSSLPTFSFSSPVPT [SeqRBMlowT_3904]", "Chip Fluorescence (max)": 0.9816}
{"MACROMOLECULE_SEQUENCE": "RNPGQALLTLRGHSAS [SeqRBMlowT_5835]", "Chip Fluorescence (max)": 0.6321}
{"MACROMOLECULE_SEQUENCE": "TFWTNPQYRIKLTEPD [SeqRBMlowT_234]", "Chip Fluorescence (max)": 0.5195}
{"MACROMOLECULE_SEQUENCE": "TFWTNPQYRLKIPQVD [SeqRBMlowT_9671]", "Chip Fluorescence (max)": 0.5794}
{"MACROMOLECULE_SEQUENCE": "KAYIMLFFTFIDGGQK [SeqRBM_3979]", "Chip Fluorescence (max)": 0.8506}
{"MACROMOLECULE_SEQUENCE": "DVSDSPDVDLKIPQAR [SeqRBM_5022]", "Chip Fluorescence (max)": 0.6546}
{"MACROMOLECULE_SEQUENCE": "LTWTSNDMKLHLSGVS [Seqshuffled_9827]", "Chip Fluorescence (max)": 0.7935}
{"MACROMOLECULE_SEQUENCE": "DSHTVDPIPINPHSAV [SeqRBM_5538]", "Chip Fluorescence (max)": 0.9715}
{"MACROMOLECULE_SEQUENCE": "KDKAGKRSHLKGHSES [Seqshuffled_5410]", "Chip Fluorescence (max)": 0.8078}
{"MACROMOLECULE_SEQUENCE": "ADQELSSFQPFYIEAS [Seqshuffled_9636]", "Chip Fluorescence (max)": 0.9604}
{"MACROMOLECULE_SEQUENCE": "PKEDLPVITIDPASPQ [SeqNHE1_Pan_troglodytes]", "Chip Fluorescence (max)": 0.9606}
{"MACROMOLECULE_SEQUENCE": "NGPGTPSRQGQPAAPS [SeqRTS1_Penicillium_nalgiovense]", "Chip Fluorescence (max)": 0.9409}
{"MACROMOLECULE_SEQUENCE": "NGPSTPTKQGQPMAPS [SeqRBM_8324]", "Chip Fluorescence (max)": 0.6682}
{"MACROMOLECULE_SEQUENCE": "TFWTNPQFRVKLEDPD [SeqRBMlowT_223]", "Chip Fluorescence (max)": 0.479}
{"MACROMOLECULE_SEQUENCE": "SQMGKSRPWVSPERDN [SeqRBM_2721]", "Chip Fluorescence (max)": 0.7358}
{"MACROMOLECULE_SEQUENCE": "VRFTLPEKQVHSSAPS [SeqRBM_2315]", "Chip Fluorescence (max)": 0.7129}
{"MACROMOLECULE_SEQUENCE": "KKMAPPCISVHPPEED [SeqRBMlowT_5025]", "Chip Fluorescence (max)": 0.441}
{"MACROMOLECULE_SEQUENCE": "TFWTNPQYRIKLTDAD [SeqRBMlowT_4313]", "Chip Fluorescence (max)": 0.4524}
{"MACROMOLECULE_SEQUENCE": "LSARYPEIVVSVPEHN [SeqRBM_9361]", "Chip Fluorescence (max)": 0.7337}
{"MACROMOLECULE_SEQUENCE": "VACITWAAMLIIFSMV [Seqrandom_9980]", "Chip Fluorescence (max)": 0.9057}
{"MACROMOLECULE_SEQUENCE": "TFWTNPQFKVKLEDPD [SeqRBMlowT_4293]", "Chip Fluorescence (max)": 0.7466}
{"MACROMOLECULE_SEQUENCE": "TFWTNPQYRITLEEVD [SeqRBMlowT_98]", "Chip Fluorescence (max)": 0.8765}
{"MACROMOLECULE_SEQUENCE": "KPFECPSIQITSISPN [SeqNFATC3_Homo_sapiens]", "Chip Fluorescence (max)": 0.8784}
{"MACROMOLECULE_SEQUENCE": "RAYINPFMQFTDDGRR [SeqRBMlowT_7881]", "Chip Fluorescence (max)": 0.7684}
{"MACROMOLECULE_SEQUENCE": "NVPKGIRFRRTYLAIP [Seqshuffled_5577]", "Chip Fluorescence (max)": 0.7584}
{"MACROMOLECULE_SEQUENCE": "QGLYENVLGMEAFSVS [SeqRBM_7629]", "Chip Fluorescence (max)": 0.8552}
{"MACROMOLECULE_SEQUENCE": "NGPGTPTRQGQPLAPS [SeqRBMlowT_7792]", "Chip Fluorescence (max)": 0.749}
{"MACROMOLECULE_SEQUENCE": "THVEKVRFLIQPAGHP [Seqshuffled_9690]", "Chip Fluorescence (max)": 0.887}
{"MACROMOLECULE_SEQUENCE": "TFWTNPQYVVSLEEPD [SeqRBMlowT_5673]", "Chip Fluorescence (max)": 0.9389}
{"MACROMOLECULE_SEQUENCE": "KFPGAEFLPQTLTPPP [Seqshuffled_9792]", "Chip Fluorescence (max)": 0.7156}
{"MACROMOLECULE_SEQUENCE": "SFWANPQFIVSLEEPD [SeqRBMlowT_610]", "Chip Fluorescence (max)": 0.3721}
{"MACROMOLECULE_SEQUENCE": "RNPGQALLTLEGHSAS [SeqRBMlowT_5868]", "Chip Fluorescence (max)": 0.6524}
{"MACROMOLECULE_SEQUENCE": "TFWTNPQYKVKLEDPD [SeqRBMlowT_2919]", "Chip Fluorescence (max)": 0.9474}
{"MACROMOLECULE_SEQUENCE": "ATSFVPQLASTLFSLW [SeqRBM_1383]", "Chip Fluorescence (max)": 0.6271}
{"MACROMOLECULE_SEQUENCE": "KAYMCPFMQFQDGGRR [SeqRBMlowT_520]", "Chip Fluorescence (max)": 0.6726}
{"MACROMOLECULE_SEQUENCE": "TFWTNPQFRIKLEDVD [SeqRBMlowT_2]", "Chip Fluorescence (max)": 0.5307}
{"MACROMOLECULE_SEQUENCE": "TFWTNPQYRITVTDED [SeqRBMlowT_7478]", "Chip Fluorescence (max)": 0.9083}
{"MACROMOLECULE_SEQUENCE": "VEYDKVWKVAQFVNKC [Seqrandom_9995]", "Chip Fluorescence (max)": 0.5427}
